Attribution: patent US20100298141A1

System: wheat
Experiment: Test C pre-/postemergence test
Type: in vivo, Triticum aestivum
Details: Preemergence, 250 g ai/ha
Recorded Plant response rating (0 to 100), Wheat values for a group of compounds are listed next.
I'd appreciate a reply containing only the number, no unit.

Solved cases (3 shown):
Qu. Complete the entry with Plant response rating (0 to 100), Wheat for Cn1nc(C(F)(F)F)c(CS(=O)(=O)c2ccc(Cl)c[n+]2[O-])c1OC(F)F
Ans. 30

Qu. Write down Plant response rating (0 to 100), Wheat measured for item Cn1nc(C(F)(F)F)c(C[S+]([O-])c2cccc[n+]2[O-])c1OC(F)F (stereo not shown)
Ans. 80

Qu. Find the measured Plant response rating (0 to 100), Wheat of Cn1nc(C(F)(F)F)c(C(Cl)S(=O)(=O)c2cccc[n+]2[O-])c1Cl (stereo not shown) and report it.
Ans. 20

Now let's try a different one.
Qu. Specify measured Plant response rating (0 to 100), Wheat for Cc1cc[n+]([O-])c(S(=O)(=O)C(C)c2c(C(F)(F)F)nn(C)c2Cl)c1 (racemic) .
Ans. 80
